Reported values of EC50 for individual entries
# assayed_target: TLR8 (Homo sapiens, UniProt Q9NR97)
# Sequence (Q9NR97 27-1041): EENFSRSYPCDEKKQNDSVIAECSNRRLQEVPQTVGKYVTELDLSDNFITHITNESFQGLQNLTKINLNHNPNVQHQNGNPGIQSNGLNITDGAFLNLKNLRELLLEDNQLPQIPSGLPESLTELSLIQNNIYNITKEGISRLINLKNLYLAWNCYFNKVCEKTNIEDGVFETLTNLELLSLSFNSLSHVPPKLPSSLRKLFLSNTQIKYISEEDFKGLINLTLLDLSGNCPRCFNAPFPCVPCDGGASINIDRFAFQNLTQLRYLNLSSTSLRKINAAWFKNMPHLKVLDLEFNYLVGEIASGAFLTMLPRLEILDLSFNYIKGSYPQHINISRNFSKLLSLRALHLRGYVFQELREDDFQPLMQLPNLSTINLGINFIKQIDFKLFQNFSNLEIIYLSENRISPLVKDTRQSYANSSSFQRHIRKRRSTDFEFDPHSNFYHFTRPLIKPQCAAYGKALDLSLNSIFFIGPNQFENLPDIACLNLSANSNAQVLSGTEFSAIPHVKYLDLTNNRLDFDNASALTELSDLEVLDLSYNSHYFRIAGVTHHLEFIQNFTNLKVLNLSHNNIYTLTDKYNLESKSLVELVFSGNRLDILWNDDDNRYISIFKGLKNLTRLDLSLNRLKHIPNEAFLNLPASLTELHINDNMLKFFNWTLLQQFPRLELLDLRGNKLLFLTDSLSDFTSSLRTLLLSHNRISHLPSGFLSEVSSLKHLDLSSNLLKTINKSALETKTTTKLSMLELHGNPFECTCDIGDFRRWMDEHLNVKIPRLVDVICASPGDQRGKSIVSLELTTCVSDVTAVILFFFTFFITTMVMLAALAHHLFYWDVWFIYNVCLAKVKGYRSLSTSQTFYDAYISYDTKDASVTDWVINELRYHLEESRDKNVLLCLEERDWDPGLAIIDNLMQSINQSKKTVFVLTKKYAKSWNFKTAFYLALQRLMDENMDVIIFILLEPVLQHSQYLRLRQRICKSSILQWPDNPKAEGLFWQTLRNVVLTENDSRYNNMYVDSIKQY
# test: Reporter gene assay, HEK-Blue TLR8 reporter cells (SEAP)

QUERY: If you can, please state the reported EC50 value of CCCCc1nc2c(N)nc3ccsc3c2n1Cc1nc(CNCc2cc[nH]c2)cs1 [Compound 231] .
RESULT: 580 nM

QUERY: If you can, please state the reported EC50 value of CCCCc1nc2c(N)nc3ccsc3c2n1Cc1cccc(CNCC(C)(C)O)c1 [Compound 205] .
RESULT: 190 nM

QUERY: If you can, please state the reported EC50 value of CCCCc1nc2c(N)nc3ccsc3c2n1Cc1cccc(Cn2ccnc2)c1 [Compound 229] .
RESULT: > 1000 nM

QUERY: If you can, please state the reported EC50 value of CCCCc1nc2c(N)nc3ccsc3c2n1CCCCCN1CCNCC1 [Compound 182] .
RESULT: > 1000 nM

QUERY: If you can, please state the reported EC50 value of CCCCc1nc2c(N)nc3ccsc3c2n1Cc1nc(CN2CCN(CCN3CCOCC3)CC2)cs1 [Compound 234] .
RESULT: > 1000 nM

QUERY: If you can, please state the reported EC50 value of CCCCc1nc2c(N)nc3ccsc3c2n1Cc1ccc(CNCCC(=O)N[C@@H](Cc2cnc[nH]2)C(=O)O)cc1 [Compound 301] .
RESULT: > 1000 nM

QUERY: If you can, please state the reported EC50 value of CCCCc1nc2c(N)nc3ccsc3c2n1Cc1ccc(C=O)cc1 [Compound 164] .
RESULT: > 1000 nM

QUERY: If you can, please state the reported EC50 value of CCCCc1nc2c(N)nc3ccsc3c2n1Cc1ccccc1CNCC(C)(C)O [Compound 225] .
RESULT: > 1000 nM

QUERY: If you can, please state the reported EC50 value of CCCCc1nc2c(N)nc3ccsc3c2n1Cc1nc(CN(CC)CC)cs1 [Compound 233] .
RESULT: 880 nM

QUERY: If you can, please state the reported EC50 value of CCCCc1nc2c(N)nc3ccsc3c2n1Cc1nc(CO)cs1 [Compound 228] .
RESULT: > 1000 nM

QUERY: If you can, please state the reported EC50 value of CCCCc1nc2c(N)nc3ccsc3c2n1Cc1ccc(CN2CCC[C@H]2C(=O)O)cc1 [Compound 300] .
RESULT: > 1000 nM

QUERY: If you can, please state the reported EC50 value of CCCCc1nc2c(N)nc3ccsc3c2n1CCCCCN=[N+]=[N-] [Compound 173] .
RESULT: > 1000 nM

QUERY: If you can, please state the reported EC50 value of CCCCc1nc2c(N)nc3ccsc3c2n1Cc1ccccc1CNCCCCCO [Compound 223] .
RESULT: > 1000 nM

QUERY: If you can, please state the reported EC50 value of CCCCc1nc2c(N)nc3ccsc3c2n1Cc1ccc(CO)o1 [Compound 253] .
RESULT: > 1000 nM

###

# System: PBMCs
# test: PBMC assay, IL-6 release (HTRF)
# Format: cell-based
# condition_summary: PBMCs from healthy donors, overnight, IL-6 induction by HTRF, average of quadruplicate
Labelling: EC50 reported below 200 nM becomes Fulfilled; at or above becomes Not fulfilled.

>>> classification("CCCCc1nc2c(N)nc3ccsc3c2n1Cc1cccc(CO)c1")
"Not fulfilled"
>>> classification("CCCCc1nc2c(N)nc3ccsc3c2n1Cc1cccc(CN(CC)CC)c1")
"Not fulfilled"
>>> classification("CCCCc1nc2c(N)nc3ccsc3c2n1Cc1ccccc1CN1CCN(C(=O)OC(C)(C)C)CC1")
"Not fulfilled"

QUERY: Please state whether EC50 is below 200 nM for "CCCCc1nc2c(N)nc3ccsc3c2n1Cc1ccc(CNCCCCNC(=O)OCc2ccccc2)cc1"
RESULT: Not fulfilled

QUERY: Please state whether EC50 is below 200 nM for "CCCCc1nc2c(N)nc3ccsc3c2n1Cc1ccccc1CNCc1cc[nH]c1"
RESULT: Not fulfilled

QUERY: Please state whether EC50 is below 200 nM for "CCCCc1nc2c(N)nc3ccsc3c2n1Cc1ccccc1CNCc1ccc(CO)cc1"
RESULT: Not fulfilled

QUERY: Please state whether EC50 is below 200 nM for "CCCCc1nc2c(N)nc3ccsc3c2n1Cc1ccc(CNCCNC(=O)OC(C)(C)C)cc1"
RESULT: Fulfilled

QUERY: Please state whether EC50 is below 200 nM for "CCNCc1nc2c(N)nc3ccsc3c2n1Cc1ccc(CN2CCNCC2)cc1"
RESULT: Not fulfilled

QUERY: Please state whether EC50 is below 200 nM for "CCCCc1nc2c(N)nc3ccsc3c2n1Cc1ccc(CN(CCN(CCCC)CCCC)CCN(CCCC)CCCC)cc1"
RESULT: Fulfilled

QUERY: Please state whether EC50 is below 200 nM for "CCCCc1nc2c(N)nc3ccsc3c2n1Cc1ccc(CN2CCN(C(=O)OC(C)(C)C)CC2)cc1"
RESULT: Not fulfilled

QUERY: Please state whether EC50 is below 200 nM for "CCCCc1nc2c(N)nc3ccsc3c2n1Cc1ccc(CNCC2CCN(C(=O)OC(C)(C)C)CC2)cc1"
RESULT: Fulfilled

QUERY: Please state whether EC50 is below 200 nM for "CCCCc1nc2c(N)nc3ccsc3c2n1Cc1ccccc1CNCCCCCO"
RESULT: Not fulfilled

QUERY: Please state whether EC50 is below 200 nM for "CCNCc1nc2c(N)nc3ccsc3c2n1Cc1ccc(CN(CC)CC)cc1"
RESULT: Not fulfilled

QUERY: Please state whether EC50 is below 200 nM for "CCCCc1nc2c(N)nc3ccsc3c2n1Cc1cccc(CN2CCN(CCN3CCOCC3)CC2)c1"
RESULT: Not fulfilled

QUERY: Please state whether EC50 is below 200 nM for "CCCCc1nc2c(N)nc3ccsc3c2n1CCCCCNCc1cc[nH]c1"
RESULT: Not fulfilled

QUERY: Please state whether EC50 is below 200 nM for "CCCCc1nc2c(N)nc3ccsc3c2n1CCCCCNCC(C)(C)O"
RESULT: Not fulfilled

QUERY: Please state whether EC50 is below 200 nM for "CCCCc1nc2c(N)nc3ccsc3c2n1Cc1nc(CNCc2cc[nH]c2)cs1"
RESULT: Not fulfilled

QUERY: Please state whether EC50 is below 200 nM for "CCCCc1nc2c(N)nc3ccsc3c2n1Cc1cccc(CNCC(C)(C)O)c1"
RESULT: Fulfilled

###

# System: PBMCs
# test: PBMC assay, IL-6 release (HTRF)
# Format: cell-based
# condition_summary: PBMCs from healthy donors, overnight, IL-6 induction by HTRF, average of quadruplicate
endpoint_name: log10(EC50) (log10 of the value in nM)
In our notation, the value equals log10 of EC50 in nM.

The cases that follow already have their log10(EC50) on record.
>>> reading("CCCCc1nc2c(N)nc3ccsc3c2n1Cc1cccc(CN2CCC(c3ccncc3)CC2)c1 [Compound 198]")
2.45
>>> reading("CCCCc1nc2c(N)nc3ccsc3c2n1CCCCCN(CC)CC [Compound 175]")
2.00
>>> reading("CCCCc1nc2c(N)nc3ccsc3c2n1Cc1ccc(CNc2ccc3c(c2)CCN(C(=O)OC(C)(C)C)C3)cc1 [Compound 261]")
2.78
>>> reading("CCCCc1nc2c(N)nc3ccsc3c2n1CCCCCN1CCC(c2ccncc2)CC1 [Compound 174]")
1.89
>>> reading("CCCCc1nc2c(N)nc3ccsc3c2n1Cc1ccc(CN2CCC(CNC(=O)OC(C)(C)C)CC2)cc1 [Compound 263]")
2.93

QUERY: If you can, please state the reported log10(EC50) value of CCCCc1nc2c(N)nc3ccsc3c2n1Cc1cccc(CNCc2ccc(CO)cc2)c1 [Compound 204] .
RESULT: 2.30

QUERY: If you can, please state the reported log10(EC50) value of CCCCc1nc2c(N)nc3ccsc3c2n1Cc1cccc(CNCC(C)(C)N2CCOCC2)c1 [Compound 202] .
RESULT: 2.88

###

Reported values of pEC50 for individual entries
# assayed_target: TLR7 (Homo sapiens)
# Sequence (Q9NYK1 27-1049): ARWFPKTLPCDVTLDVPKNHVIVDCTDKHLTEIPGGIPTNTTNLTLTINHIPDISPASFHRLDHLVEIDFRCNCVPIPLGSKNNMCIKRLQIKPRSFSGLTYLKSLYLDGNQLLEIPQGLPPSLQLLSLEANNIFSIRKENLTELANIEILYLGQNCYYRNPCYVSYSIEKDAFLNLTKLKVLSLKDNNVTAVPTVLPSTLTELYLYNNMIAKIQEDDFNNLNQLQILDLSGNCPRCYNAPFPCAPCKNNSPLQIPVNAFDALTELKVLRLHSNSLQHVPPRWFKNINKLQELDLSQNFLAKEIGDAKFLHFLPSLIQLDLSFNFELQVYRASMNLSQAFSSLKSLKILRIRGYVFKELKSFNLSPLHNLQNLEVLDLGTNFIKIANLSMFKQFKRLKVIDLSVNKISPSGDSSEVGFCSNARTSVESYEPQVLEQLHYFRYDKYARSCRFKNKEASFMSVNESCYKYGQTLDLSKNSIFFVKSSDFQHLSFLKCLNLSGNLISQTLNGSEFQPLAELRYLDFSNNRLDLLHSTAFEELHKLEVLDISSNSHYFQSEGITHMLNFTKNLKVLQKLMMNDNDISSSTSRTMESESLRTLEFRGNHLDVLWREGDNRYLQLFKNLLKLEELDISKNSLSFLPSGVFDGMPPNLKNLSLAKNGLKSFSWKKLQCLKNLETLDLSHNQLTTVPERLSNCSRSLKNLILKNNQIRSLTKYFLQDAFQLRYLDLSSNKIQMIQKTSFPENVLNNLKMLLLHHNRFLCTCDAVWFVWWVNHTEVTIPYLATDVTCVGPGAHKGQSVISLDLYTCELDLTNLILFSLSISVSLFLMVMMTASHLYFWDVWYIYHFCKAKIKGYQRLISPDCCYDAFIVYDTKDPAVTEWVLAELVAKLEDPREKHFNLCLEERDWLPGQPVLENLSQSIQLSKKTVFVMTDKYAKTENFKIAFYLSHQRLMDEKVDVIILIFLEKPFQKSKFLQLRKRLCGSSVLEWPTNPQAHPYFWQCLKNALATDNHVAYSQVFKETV
# test: Reporter gene assay, HEK-Blue TLR7 reporter cells (SEAP)
# log scale: pEC50 equals minus log10 of the concentration in mol/L

>>> reading("CCCCc1nc2c(N)nc3ccsc3c2n1Cc1ncc(CNCC(C)(C)O)s1")
6.38
>>> reading("CCCCc1nc2c(N)nc3ccsc3c2n1CCCCCNCc1ccc(CO)cc1")
7.92
>>> reading("CCOCc1nc2c(N)nc3ccsc3c2n1Cc1ccc(CN[C@H](CO)[C@@H](C)CC)cc1")
8.52
>>> reading("CCCCc1nc2c(N)nc3ccsc3c2n1CCCCCO")
7.57
>>> reading("CCCCc1nc2c(N)nc3ccsc3c2n1Cc1ccc(CNCC2CCN(C(=O)OC(C)(C)C)CC2)cc1")
7.08
>>> reading("CCCCc1nc2c(N)nc3ccsc3c2n1Cc1nc(CN2CCNCC2)cs1")
6.82
>>> reading("CCCCc1nc2c(N)nc3ccsc3c2n1Cc1ccc(CNCCNC(=O)OC(C)(C)C)cc1")
8.06
>>> reading("CCCCc1nc2c(N)nc3ccsc3c2n1CCCCCNCc1cc[nH]c1")
7.47

Let us move to another entry and its pEC50.
QUERY: If you can, please state the reported pEC50 value of "CCOCc1nc2c(N)nc3ccsc3c2n1Cc1ccc(CN2CCNCC2)cc1" .
RESULT: 8.05
